biological target: cloned human dopamine D3 receptors (Homo sapiens, UniProt P35462); construct: expressed in transfected cells; membrane homogenate; experiment: [N-Methyl-3H]Spiroperidol binding to cloned human dopamine D3 receptors (Protocol 1); settings: read-out: D3K1
Sequence (P35462 whole entry): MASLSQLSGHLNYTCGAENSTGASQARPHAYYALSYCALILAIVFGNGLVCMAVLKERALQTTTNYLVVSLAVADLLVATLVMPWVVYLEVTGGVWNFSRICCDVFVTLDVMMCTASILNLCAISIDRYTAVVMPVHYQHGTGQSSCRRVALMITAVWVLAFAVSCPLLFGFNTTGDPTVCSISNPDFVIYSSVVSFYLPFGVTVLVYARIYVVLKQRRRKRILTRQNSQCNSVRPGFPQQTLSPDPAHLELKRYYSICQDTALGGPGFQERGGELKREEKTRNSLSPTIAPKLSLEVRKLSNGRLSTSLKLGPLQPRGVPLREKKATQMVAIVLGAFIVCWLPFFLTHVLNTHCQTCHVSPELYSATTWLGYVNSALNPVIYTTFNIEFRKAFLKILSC
// class assignment uses Ki with these ranges: bottom = under 0.03 µM, middle = from 0.03 µM up to 0.1 µM, top = 0.1 µM and over

[
  {
    "compound": "O=C(NCCCCCN1CCN(c2csc3cc(C(F)(F)F)ccc23)CC1)c1cccc(Cl)c1",
    "qualitative label": "bottom"
  }
]

Class label required: O=C(NCCCCCN1CCN(c2csc3cc(C(F)(F)F)ccc23)CC1)c1ccc2cc[nH]c2c1
bottom

Consider O=C(N[C@H](CO)CCCN1CCN(c2csc3cc(C(F)(F)F)ccc23)CC1)c1cc2ccccc2[nH]1 . To which Ki class does it belong?
top

----------
target: cloned human dopamine D3 receptors (Homo sapiens, UniProt P35462); construct: expressed in transfected cells; membrane homogenate; assay: [N-Methyl-3H]Spiroperidol binding to cloned human dopamine D3 receptors (Protocol 1); conditions: the 19th table; read-out: D3 Ki
recorded endpoint: Ki (nM)
Numbers only, in nM.

For each of the molecules below, state Ki.
1. Cc1ccccc1C(=O)Nc1cccc(CN2CCN(c3csc4cc(F)ccc34)CC2)c1
2. O=C(Nc1cccc(CN2CCN(c3csc4cc(F)ccc34)CC2)c1)c1cccs1
3. O=C(Nc1ccc(CN2CCN(c3csc4cc(F)ccc34)CC2)cc1)c1cccs1
4. COc1cc(OC)cc(C(=O)Nc2cccc(CN3CCN(c4csc5cc(F)ccc45)CC3)c2)c1

1. 154
2. 96.7
3. 63
4. 163

----------
biological target: cloned human dopamine D3 receptors (Homo sapiens); construct: expressed in transfected cells; membrane homogenate; assay: [N-Methyl-3H]Spiroperidol binding to cloned human dopamine D3 receptors (Protocol 1); conditions: the 18th table; read-out: D3 Ki
recorded endpoint: Ki (µM)
One number for each entry, in µM.

Illustrative cases are given below, each with its answer.
[
  {
    "compound": "O=C(NCc1sccc1CN1CCN(c2csc3cc(F)ccc23)CC1)c1ccc(F)cc1 [compound 826304]",
    "output unit": "µM",
    "test result": 0.084
  },
  {
    "compound": "O=C(NCc1sccc1CN1CCN(c2csc3cc(F)ccc23)CC1)c1ccc(C(F)(F)F)cc1 [compound 826311]",
    "output unit": "µM",
    "test result": 0.074
  },
  {
    "compound": "COc1ccc(C(=O)NCc2sccc2CN2CCN(c3csc4cc(F)ccc34)CC2)cc1OC [compound 826305]",
    "output unit": "µM",
    "test result": 0.03
  }
]

Turning to the following compound.
In one line, give reported Ki of the entry Cc1ccccc1C(=O)NCc1sccc1CN1CCN(c2csc3cc(F)ccc23)CC1 [compound 826306] .
0.089

----------
target: cloned human dopamine D3 receptors (Homo sapiens); construct: expressed in transfected cells; membrane homogenate; assay: [N-Methyl-3H]Spiroperidol binding to cloned human dopamine D3 receptors (Protocol 1); details: the 22nd table; read-out: D3 Ki
recorded endpoint: Ki (nM)
Numbers only, in nM.

[
  {
    "compound": "O=C(NCCCCN1CCN(c2noc3ccsc23)CC1)c1cnc2ccccc2n1 [compound 829688]",
    "measured target": "cloned human dopamine D3 receptors (Homo sapiens)",
    "Ki / nM": 673
  },
  {
    "compound": "O=C(NCCCCN1CCN(c2noc3ccsc23)CC1)c1ccc(C(F)(F)F)cc1 [compound 829677]",
    "measured target": "cloned human dopamine D3 receptors (Homo sapiens)",
    "Ki / nM": 96.6
  },
  {
    "compound": "O=C(NCCCCN1CCN(c2n[nH]c3ccsc23)CC1)c1ccc(F)c(F)c1 [compound 825163]",
    "measured target": "cloned human dopamine D3 receptors (Homo sapiens)",
    "Ki / nM": 221
  },
  {
    "compound": "CCCCc1ccc(C(=O)NCCCCN2CCN(c3noc4ccsc34)CC2)cc1 [compound 829685]",
    "measured target": "cloned human dopamine D3 receptors (Homo sapiens)",
    "Ki / nM": 149
  },
  {
    "compound": "O=C(NCCCCN1CCN(c2noc3ccsc23)CC1)c1cc(C(F)(F)F)ccc1F [compound 829691]",
    "measured target": "cloned human dopamine D3 receptors (Homo sapiens)",
    "Ki / nM": 151
  }
]

Give Ki for each listed item.
1. O=C(NCCCCN1CCN(c2nn(C(=O)c3ccc(C(F)(F)F)cc3)c3ccsc23)CC1)c1ccc(C(F)(F)F)cc1 [compound 825149]
2. O=C(NCCCCN1CCN(c2noc3ccsc23)CC1)c1ccc2[nH]ccc2c1 [compound 829683]
3. O=C(NCCCCN1CCN(c2noc3ccsc23)CC1)c1cc2ccccc2s1 [compound 829681]
4. O=C(NCCCCN1CCN(c2noc3ccsc23)CC1)c1ccc(Cl)cc1 [compound 829675]

[164, 37.5, 17.7, 38.9]

// each compound listed below needs its Ki
1. Cc1ccccc1C(=O)NCCCCN1CCN(c2n[nH]c3ccsc23)CC1 [compound 825161]
2. Cc1ccc(C(=O)NCCCCN2CCN(c3nn(C(=O)c4ccc(C)cc4)c4ccsc34)CC2)cc1 [compound 825147]
3. O=C(NCCCCN1CCN(c2nn(C(=O)c3cc4ccccc4s3)c3ccsc23)CC1)c1cc2ccccc2s1 [compound 825164]
4. Cc1ccccc1C(=O)NCCCCN1CCN(c2nn(C(=O)c3ccccc3C)c3ccsc23)CC1 [compound 825146]
5. COc1ccccc1C(=O)NCCCCN1CCN(c2n[nH]c3ccsc23)CC1 [compound 825159]
6. O=C(NCCCCN1CCN(c2noc3ccsc23)CC1)c1cc2ccccc2[nH]1 [compound 829682]

1. 244
2. 62.7
3. 10.4
4. 188
5. 92.1
6. 18.9
